readout kind: Amount of citral necessary for solubilizing in ethanol
Answer by giving the amount and then stating its unit.

NC(=O)CC[C@H](N)C(=O)O [Glutamine, L(+)-glutamine] | 700 mg

Would you mind giving Amount of citral necessary for solubilizing in ethanol for every compound in the list below?
1. C[C@H](N)C(=O)O [L-Alanine, L-alanine]
2. CC[C@H](C)[C@H](N)C(=O)O [Isoleucine, L(+)-isoleucine]
3. CC(C)[C@H](N)C(=O)O [Valine, L-valine]

["700 mg", "700 mg", "700 mg"]
